// reported protein stability index for each item listed
B1: MGC16075 (parent)
chain: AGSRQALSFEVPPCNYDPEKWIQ

# Variants of: B1
# assay overview: protein stability index of a GFP-peptide fusion (GPS, HEK-293T) (PSI 1-6); higher = more stable;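 also: lentivirally expressed fusions sorted by FACS into six bins by GFP to DsRed ratio, PSI derived from sequencing read proportions per bin multiplied by bin number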
# measurement setup: c terminus: native
Enter a number only.

Reference set, count: 5
mutation key: P13I
measured value: 2.7

mutation key: P13N
measured value: 1.27

mutation key: P18G
measured value: 2.41

mutation key: V11Q
measured value: 2.38

mutation key: D17M
measured value: 1.9

May I ask what protein stability index has been recorded for W21I ?
4.03
